# HC50 at 1 h listing for each entry below
MEASUREMENT_DESCRIPTION: Hemolysis assay, 50% lysis of RBC's
Assay type: cell-based, human
ASSAY_SETUP: human, 0.25% suspension of human erythrocytes (RBCs), pH 7

Request: Need HC50 at 1 h of `CC(C)C[C@H](N)CC(=O)N[C@@H](CCCCN)CC(=O)N[C@H](CC(=O)N[C@H](CC(=O)N[C@@H](CCCCN)CC(=O)N[C@H](CC(=O)N[C@H](CC(=O)N[C@@H](CCCCN)CC(=O)N[C@H](CC(=O)N[C@H](CC(=O)N[C@@H](CCCCN)CC(=O)N[C@H](CC(=O)N[C@H](CC(=O)N[C@@H](CCCCN)CC(=O)N[C@H](CC(=O)O)CC(C)C)CC(C)C)CC(C)C)CC(C)C)CC(C)C)CC(C)C)CC(C)C)CC(C)C)CC(C)C` , thanks.
Response: 0.23 µM

Request: Need HC50 at 1 h of `CC(C)C[C@H](N)CC(=O)N[C@@H](CCCCN)CC(=O)N[C@H](CC(=O)N[C@H](CC(=O)N[C@@H](CCCCN)CC(=O)N[C@H](CC(=O)O)CC(C)C)CC(C)C)CC(C)C` , thanks.
Response: > 100 µM

Request: Need HC50 at 1 h of `CC(C)C[C@@H](CC(=O)O)NC(=O)C[C@H](CCCCN)NC(=O)C[C@@H](NC(=O)C[C@H](CC(C)C)NC(=O)C[C@H](CCCCN)NC(=O)C[C@@H](NC(=O)OCC1c2ccccc2-c2ccccc21)C(C)C)C(C)C` , thanks.
Response: > 100 µM

###

MEASUREMENT_DESCRIPTION: Hemolysis assay, 50% lysis of RBC's
Type: cell-based, human
ASSAY_SETUP: human, 0.25% suspension of human erythrocytes (RBCs)
Protocol: The biological activities of these peptides were measured using human erythrocytes and E. coli as models for mammalian and bacterial cells, respectively. Hemolysis was monitored in 10 mM Tris, 150 mM NaCl, pH 7.0, while the bacterial assay was conducted in minimal media M9 (Table 1); both of these solutions are sufficiently transparent to allow CD and ultracentrifugation measurements (supplementary material). […]
MEASURED_METRIC: HC50 at 1 h

Request: Need HC50 at 1 h of CC(C)[C@@H](CC(N)=O)NC(=O)C[C@H](CCCCN)NC(=O)C[C@H](C)NC(=O)C[C@@H](NC(=O)C[C@H](CCCCN)NC(=O)C[C@H](C)NC(=O)C[C@@H](NC(=O)C[C@H](CCCCN)NC(=O)C[C@H](C)NC(=O)C[C@@H](NC(=O)C[C@H](CCCCN)NC(=O)C[C@H](C)NC(=O)C[C@@H](NC(=O)C[C@H](CCCCN)NC(=O)C[C@H](C)N)C(C)C)C(C)C)C(C)C)C(C)C [Peptide 2] , thanks.
Response: 240 µM

###

Tested on: human erythrocytes (RBC's)
MEASUREMENT_DESCRIPTION: Hemolysis assay, 50% lysis of RBC's
Assay type: cell-based
ASSAY_SETUP: pH 7
MEASURED_METRIC: HD50+ (µM)
Enter your answer as a number in µM; do not include the unit.

The following molecules have reported results that may help.
[[record]]
smiles_string = "CC(C)C[C@H](N)CC(=O)N[C@@H](CCCCN)CC(=O)N[C@H](CC(=O)N[C@H](CC(=O)N[C@@H](CCCCN)CC(=O)N[C@H](CC(=O)N[C@H](CC(=O)N[C@@H](CCCCN)CC(=O)N[C@H](CC(=O)N[C@H](CC(=O)N[C@@H](CCCCN)CC(=O)N[C@H](CC(=O)N[C@H](CC(=O)N[C@@H](CCCCN)CC(=O)N[C@H](CC(=O)O)CC(C)C)CC(C)C)CC(C)C)CC(C)C)CC(C)C)CC(C)C)CC(C)C)CC(C)C)CC(C)C"
experimental_system = "human erythrocytes (RBC's)"
measured_metric = "HD50+"
endpoint_value = 0.23

[[record]]
smiles_string = "CC(C)C[C@H](N)CC(=O)N[C@@H](CCCCN)CC(=O)N[C@H](CC(=O)N[C@H](CC(=O)N[C@@H](CCCCN)CC(=O)N[C@H](CC(=O)N[C@H](CC(=O)N[C@@H](CCCCN)CC(=O)N[C@H](CC(=O)N[C@H](CC(=O)N[C@@H](CCCCN)CC(=O)N[C@H](CC(=O)O)CC(C)C)CC(C)C)CC(C)C)CC(C)C)CC(C)C)CC(C)C)CC(C)C"
experimental_system = "human erythrocytes (RBC's)"
measured_metric = "HD50+"
endpoint_value = 2.6


Next:
Request: Need HD50+ of `CC(C)C[C@@H](CC(=O)O)NC(=O)C[C@H](CCCCN)NC(=O)C[C@@H](NC(=O)C[C@H](CC(C)C)NC(=O)C[C@H](CCCCN)NC(=O)C[C@@H](NC(=O)C[C@H](CC(C)C)NC(=O)C[C@H](CCCCN)NC(=O)C[C@@H](NC(=O)OCC1c2ccccc2-c2ccccc21)C(C)C)C(C)C)C(C)C` , thanks.
Response: 6.3
